Reported IC50 values are given for each entry in this list.
target: Proteasome subunit beta type-8 (Homo sapiens); experiment: Inhibition of human 20S proteasome subunit beta-5i using Ac-ANW-AMC as substrate and measured every 30 secs for 30 mins by microtiter plate assay
Sequence (P28062 whole entry): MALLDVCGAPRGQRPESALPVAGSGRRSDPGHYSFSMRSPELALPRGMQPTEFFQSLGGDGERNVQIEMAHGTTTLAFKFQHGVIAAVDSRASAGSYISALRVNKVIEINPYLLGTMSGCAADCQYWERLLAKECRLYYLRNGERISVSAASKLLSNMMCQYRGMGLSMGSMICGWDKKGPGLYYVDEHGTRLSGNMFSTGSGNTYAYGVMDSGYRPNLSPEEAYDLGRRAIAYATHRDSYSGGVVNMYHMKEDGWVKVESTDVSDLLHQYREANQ

mol_smiles | IC50
Cc1cc(C(=O)N[C@@H](CC(=O)N2CCC[C@@H]2c2ccccc2)C(=O)N[C@@H](C)c2ncc(-c3ccc(F)cc3F)[nH]2)no1 | > 100 µM
COc1ccccc1CNC(=O)[C@H](C)NC(=O)[C@H](CC(=O)N1CCC[C@@H]1c1ccccc1)NC(=O)c1cc(C)on1 | > 100 µM
Cc1cc(C(=O)N[C@@H](CC(=O)N2CCC[C@@H]2c2ccccc2)C(=O)N[C@@H](C)c2ncc(-c3ccccc3F)[nH]2)no1 | > 100 µM

Lab note: next molecule to report on.
For the molecule `Cc1cc(C(=O)N[C@@H](CC(=O)N2CCC[C@@H]2c2ccccc2)C(=O)N[C@@H](C)C(=O)NCc2ccc(F)cc2F)no1` , what IC50 is on record? 7.89 µM

The origin of these recorded values is ChEMBL document CHEMBL4414599.
